Molecular target: UniProt:P09874
Test: Inhibition of human PARP-1 assessed as synthesis of [3H]-ADP-ribose polymers from [3H]-NAD+ by scintillation proximity assay
property_label: IC50 (nM)

molecule: Nc1cccc2c(=O)[nH]ccc12
unit_of_measure: nM
number: 1600

----------
Biological target: Poly [ADP-ribose] polymerase 1 (Bos taurus, UniProt P18493)
Sequence (P18493 whole entry): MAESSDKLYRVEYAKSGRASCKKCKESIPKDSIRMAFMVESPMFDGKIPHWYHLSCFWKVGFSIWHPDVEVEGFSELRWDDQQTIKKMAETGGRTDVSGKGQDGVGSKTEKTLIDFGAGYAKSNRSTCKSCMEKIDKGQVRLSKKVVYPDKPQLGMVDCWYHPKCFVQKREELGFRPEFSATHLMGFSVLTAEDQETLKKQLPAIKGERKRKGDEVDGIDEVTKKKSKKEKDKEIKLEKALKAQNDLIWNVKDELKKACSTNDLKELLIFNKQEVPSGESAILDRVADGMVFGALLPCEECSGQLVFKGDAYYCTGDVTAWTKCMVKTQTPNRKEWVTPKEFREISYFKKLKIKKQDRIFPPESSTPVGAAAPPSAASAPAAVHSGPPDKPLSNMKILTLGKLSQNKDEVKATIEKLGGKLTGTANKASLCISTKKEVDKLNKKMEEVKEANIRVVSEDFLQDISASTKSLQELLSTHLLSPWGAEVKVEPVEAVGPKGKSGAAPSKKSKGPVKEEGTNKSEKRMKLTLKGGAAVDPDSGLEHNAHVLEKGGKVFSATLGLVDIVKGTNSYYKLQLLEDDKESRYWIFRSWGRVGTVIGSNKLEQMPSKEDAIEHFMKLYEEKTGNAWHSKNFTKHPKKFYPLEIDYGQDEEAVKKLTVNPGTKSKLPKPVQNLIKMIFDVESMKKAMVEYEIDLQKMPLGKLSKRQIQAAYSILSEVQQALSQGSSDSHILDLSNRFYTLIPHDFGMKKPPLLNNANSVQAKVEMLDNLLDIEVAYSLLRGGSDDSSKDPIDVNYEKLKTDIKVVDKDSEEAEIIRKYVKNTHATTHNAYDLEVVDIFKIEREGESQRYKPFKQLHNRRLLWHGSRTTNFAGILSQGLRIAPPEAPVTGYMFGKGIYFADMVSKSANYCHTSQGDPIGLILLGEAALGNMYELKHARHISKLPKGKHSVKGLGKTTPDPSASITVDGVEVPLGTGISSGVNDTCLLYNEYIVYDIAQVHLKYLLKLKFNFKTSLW
property_label: IC50 (nM)

molecule: Nc1cccc2c(=O)[nH]ccc12
property_label: IC50
number: 250

----------
Target: Poly [ADP-ribose] polymerase 1 (Homo sapiens)
Sequence (P09874 whole entry): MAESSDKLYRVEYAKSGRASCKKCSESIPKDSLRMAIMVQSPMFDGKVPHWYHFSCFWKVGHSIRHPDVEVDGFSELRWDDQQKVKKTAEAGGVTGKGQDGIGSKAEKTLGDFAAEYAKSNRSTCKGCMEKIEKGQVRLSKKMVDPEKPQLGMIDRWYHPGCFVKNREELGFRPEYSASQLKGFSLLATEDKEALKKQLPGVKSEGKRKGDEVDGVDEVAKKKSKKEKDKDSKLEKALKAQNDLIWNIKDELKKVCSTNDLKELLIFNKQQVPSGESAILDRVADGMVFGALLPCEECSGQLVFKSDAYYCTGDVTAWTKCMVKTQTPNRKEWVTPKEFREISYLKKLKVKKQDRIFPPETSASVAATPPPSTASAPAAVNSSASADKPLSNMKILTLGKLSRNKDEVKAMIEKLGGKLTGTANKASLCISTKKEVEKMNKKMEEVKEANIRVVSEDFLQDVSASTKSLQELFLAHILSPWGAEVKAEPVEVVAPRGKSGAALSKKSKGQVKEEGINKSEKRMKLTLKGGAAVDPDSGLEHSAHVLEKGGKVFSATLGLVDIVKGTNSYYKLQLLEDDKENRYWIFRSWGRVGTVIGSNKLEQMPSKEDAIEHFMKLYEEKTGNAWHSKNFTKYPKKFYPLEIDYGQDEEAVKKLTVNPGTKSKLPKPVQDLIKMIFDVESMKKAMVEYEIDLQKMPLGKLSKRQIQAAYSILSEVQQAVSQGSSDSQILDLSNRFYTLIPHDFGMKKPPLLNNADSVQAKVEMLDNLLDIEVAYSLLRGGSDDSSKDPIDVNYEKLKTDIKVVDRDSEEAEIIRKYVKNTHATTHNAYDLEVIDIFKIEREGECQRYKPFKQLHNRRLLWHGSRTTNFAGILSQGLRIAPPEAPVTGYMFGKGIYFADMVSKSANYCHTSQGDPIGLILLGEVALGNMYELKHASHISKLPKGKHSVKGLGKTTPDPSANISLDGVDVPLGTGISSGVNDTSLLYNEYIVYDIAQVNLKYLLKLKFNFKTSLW
Experiment: Inhibition of PARP-1 (unknown origin) in broken nuclear preparation
pIC50: −log10 of the molar value.

molecule: Nc1cccc2c(=O)[nH]ccc12
pIC50: 6.52
